Recorded Euclidean distance for the following compounds
test system: DU145; experiment: Euclidean distance of Cell Painting phenotypic profile (signed KS, 77 features) to DMSO centroid (dimensionless distance); 5 or 10 uM (library dependent); higher = stronger phenotypic change vs DMSO (phenoactivity); settings: 48 h
Counter-ions that a name gives are not always drawn.

compound: Cc1cccc(Oc2cnc(=O)[nH]c2)c1
Euclidean distance: 1.39

compound: CC(C)(Oc1ccc(C(=O)c2ccc(Cl)cc2)cc1)C(=O)O
Euclidean distance: 0.978

compound: CCNC(=O)[C@@H]1CCCN1C(=O)[C@H](CCCNC(=N)N)NC(=O)[C@H](CC(C)C)NC(=O)[C@@H](CC(C)C)NC(=O)[C@H](Cc1ccc(O)cc1)NC(=O)[C@H](CO)NC(=O)[C@H](Cc1c[nH]c2ccccc12)NC(=O)[C@H](Cc1c[nH]cn1)NC(=O)[C@@H]1CCC(=O)N1 [Leuprolide Acetate]
Euclidean distance: 0.992

compound: CC(C)(C)NCC(O)c1cc(O)cc(O)c1 (centres undefined) [Terbutaline Sulfate]
Euclidean distance: 0.835

compound: C[C@@H](Oc1cc(-n2cnc3ccc(CN4CCN(C)CC4)cc32)sc1C(N)=O)c1ccccc1C(F)(F)F
Euclidean distance: 4.26

compound: CCCCCCCCCCCCCCCCOP(=O)([O-])OCC[N+](C)(C)C
Euclidean distance: 1.17

compound: O=C(NCCS(=O)(=O)c1ccc(C(F)(F)F)cn1)c1ccc(Cl)cc1
Euclidean distance: 1.57

compound: CC(C)N(CC[C@H](c1ccccc1)c1cc(CO)ccc1O)C(C)C
Euclidean distance: 0.538

compound: COCCNCCc1cccc(Nc2ncc3c(n2)-c2ccccc2[C@H](c2ccccc2F)C3)c1 [Derazantinib(ARQ-087)]
Euclidean distance: 5.6

====

test system: HEPG2; experiment: Euclidean distance of Cell Painting phenotypic profile (signed KS, 77 features) to DMSO centroid (dimensionless distance); 5 or 10 uM (library dependent); higher = stronger phenotypic change vs DMSO (phenoactivity); settings: 48 h
Structures can show the parent of a compound that is named as a salt.
property: Euclidean distance

compound: NC[C@H]1O[C@H](O[C@H]2[C@H](O)[C@@H](O[C@H]3O[C@H](CO)[C@@H](O)[C@H](N)[C@H]3O)[C@H](N)C[C@@H]2N)[C@H](N)C[C@@H]1O
number: 0.563
--
compound: COc1cc2ncnc(Nc3ccc(F)c(Cl)c3)c2cc1NC(=O)/C=C/CN1CCCCC1
number: 1.47
--
compound: O=C(Cc1cccc(OC(F)(F)F)c1)Nc1ccc(CCCCc2nnc(NC(=O)Cc3ccccn3)s2)nn1
number: 2.75
--
compound: Cc1[nH]c2ccccc2c1CCNCc1ccc(/C=C/C(=O)NO)cc1
number: 4.4
--
compound: O=C(O)Cc1cc(I)c(Oc2ccc(O)c(I)c2)c(I)c1
number: 0.536
--
compound: O=c1c(O)c(-c2ccc(O)c(O)c2)oc2cc(O)cc(O)c12 [Quercetin Dihydrate]
number: 0.874
--
compound: CN1CCOC(c2ccccc2)c2ccccc2C1 (configuration not stated) [Nefopam HCl]
number: 0.77

====

test system: FB; assay: Euclidean distance of Cell Painting phenotypic profile (signed KS, 77 features) to DMSO centroid (dimensionless distance); 5 or 10 uM (library dependent); higher = stronger phenotypic change vs DMSO (phenoactivity); details: 48 h

given.smiles: Cc1ccc(NC(=O)C2(c3ccc4c(c3)OC(F)(F)O4)CC2)nc1-c1cccc(C(=O)O)c1
Euclidean distance: 0.88
//
given.smiles: COc1ncc(-c2ccc3nccc(-c4ccnnc4)c3c2)cc1NS(=O)(=O)c1ccc(F)cc1F
Euclidean distance: 3.96
//
given.smiles: CCOC(=O)C1=C(COCCN)NC(C)=C(C(=O)OC)[C@@H]1c1ccccc1Cl
Euclidean distance: 1.12

====

system: FB; assay: Euclidean distance of Cell Painting phenotypic profile (signed KS, 77 features) to DMSO centroid (dimensionless distance); 5 or 10 uM (library dependent); higher = stronger phenotypic change vs DMSO (phenoactivity); details: 48 h
Counter-ions that a name gives are not always drawn.
1 means recorded Euclidean distance is 1 or above; 0 means it is below 1.

compound: CC(C)c1nc(CN(C)C(=O)N[C@@H](CCN2CCOCC2)C(=O)N[C@H](CC[C@H](Cc2ccccc2)NC(=O)OCc2cncs2)Cc2ccccc2)cs1 [Cobicistat (GS-9350)]
category.label: 1

compound: Cc1ccc(NC(=O)c2ccc(CN3CCN(C)CC3)cc2)cc1Nc1nccc(-c2cccnc2)n1 [Imatinib (STI571)]
category.label: 1

compound: CC[C@@H]1C(=O)N(C)c2cnc(Nc3ccc(C(=O)NC4CCN(C)CC4)cc3OC)nc2N1C1CCCC1
category.label: 1

compound: OC(CCN1CCCC1)(c1ccccc1)C1CCCCC1 (stereo not given) [Procyclidine HCl]
category.label: 1

compound: CCCCCCCN(CC)CCCC(O)c1ccc(NS(C)(=O)=O)cc1 (stereo not given) [Ibutilide Fumarate]
category.label: 1

compound: Cc1cc(-c2ncc(CC(=O)Nc3ccc(-c4cnccn4)cn3)cc2C)ccn1
category.label: 0

compound: O=c1c(O)c(-c2ccc(O)cc2O)oc2cc(O)cc(O)c12 [Morin Hydrate]
category.label: 0

compound: COc1cnc(NS(=O)(=O)c2ccc(N)cc2)nc1
category.label: 1

compound: CCc1c(C)[nH]c2c1C(=O)C(CN1CCOCC1)CC2 (stereo not given) [Molindone hydrochloride]
category.label: 0

compound: C[C@]12C=CC(=O)C=C1CC[C@@H]1[C@@H]2C(=O)C[C@@]2(C)[C@H]1CC[C@]2(O)C(=O)CO
category.label: 1

====

system: FB; test: Euclidean distance of Cell Painting phenotypic profile (signed KS, 77 features) to DMSO centroid (dimensionless distance); 5 or 10 uM (library dependent); higher = stronger phenotypic change vs DMSO (phenoactivity); settings: 48 h
Structures can show the parent of a compound that is named as a salt.
So basically: Euclidean distance at 1 or higher? That is class 1. Lower than 1? That is class 0.

compound: O=C(O)CCC(=O)OC[C@@H](NC(=O)C(Cl)Cl)[C@H](O)c1ccc([N+](=O)[O-])cc1 [Chloramphenicol sodium succinate]
category.label: class 0
--
compound: COC(=O)CCC(=O)CN [Methyl Aminolevulinate Hydrochloride]
category.label: class 0
--
compound: CC(C)(Oc1ccc(CCNC(=O)c2ccc(Cl)cc2)cc1)C(=O)O [Bezafibrate]
category.label: class 1
--
compound: C#C[C@]1(O)CC[C@H]2[C@@H]3CCC4=CC(=O)CC[C@@H]4[C@H]3CC[C@@]21CC
category.label: class 0
--
compound: C/C(O)=C(\C#N)C(=O)Nc1ccc(C(F)(F)F)cc1 [Teriflunomide]
category.label: class 1
--
compound: CNC(=O)c1cc(Oc2ccc(NC(=O)Nc3ccc(Cl)c(C(F)(F)F)c3)c(F)c2)ccn1 [Regorafenib (BAY 73-4506)]
category.label: class 1
--
compound: O=C1c2c(O)ccc(O)c2C(=O)c2c(NCCNCCO)ccc(NCCNCCO)c21 [Mitoxantrone 2HCl]
category.label: class 1
--
compound: CO/N=C(/C(=O)N[C@@H]1C(=O)N2C(C(=O)OCOC(=O)C(C)(C)C)=C(C)CS[C@H]12)c1csc(N)n1 [Cefetamet pivoxil hydrochloride]
category.label: class 0
--
compound: O=C(Nc1ccc(OC(F)(F)F)cc1)c1sccc1NCc1ccnc2ccccc12
category.label: class 1
--
compound: Cc1cc(NS(=O)(=O)c2ccc(N)cc2)nc(C)n1
category.label: class 0

====

system: 786-O; test: Euclidean distance of Cell Painting phenotypic profile (signed KS, 77 features) to DMSO centroid (dimensionless distance); 5 or 10 uM (library dependent); higher = stronger phenotypic change vs DMSO (phenoactivity); conditions: 48 h
Counter-ions that a name gives are not always drawn.

compound: Cn1cc(-c2ccc3nnc(Sc4ccc5ncccc5c4)n3n2)cn1
Euclidean distance: 1.56
--
compound: O=C(O)CCn1c2c(c3ccccc31)C[C@H](NS(=O)(=O)c1ccc(F)cc1)CC2
Euclidean distance: 0.593
--
compound: CN1C(CCl)Nc2cc(Cl)c(S(N)(=O)=O)cc2S1(=O)=O (stereo not drawn) [Methyclothiazide]
Euclidean distance: 1.01
--
compound: O=C(O)Cc1cccc(OCCCN(Cc2cccc(C(F)(F)F)c2Cl)CC(c2ccccc2)c2ccccc2)c1
Euclidean distance: 1.18
--
compound: Nc1nc(Cl)nc2c1ncn2[C@H]1C[C@H](O)[C@@H](CO)O1
Euclidean distance: 2.58
--
compound: COC(=O)c1ccc2c(c1)NC(=O)/C2=C(\Nc1ccc(N(C)C(=O)CN2CCN(C)CC2)cc1)c1ccccc1
Euclidean distance: 3.7
--
compound: CC(=O)Nc1ccc(NC(=S)NC(=O)c2ccc(C(C)(C)C)cc2)cc1
Euclidean distance: 2.16
--
compound: C[C@@H]1C[C@H]2[C@@H]3C[C@H](F)C4=CC(=O)C=C[C@]4(C)[C@@]3(F)[C@@H](O)C[C@]2(C)[C@@]1(OC(=O)c1ccco1)C(=O)SCF [fluticasone furoate]
Euclidean distance: 2.17
--
compound: CCn1c(N)c(C(=O)NC)c(=O)c2ccc(C#CC(C)(O)COC)nc21 (stereo not drawn)
Euclidean distance: 0.634
--
compound: C[S+](CC[C@H](N)C(=O)[O-])C[C@H]1O[C@@H](n2cnc3c(N)ncnc32)[C@H](O)[C@@H]1O (stereo partly drawn)
Euclidean distance: 0.708
--
compound: O=C(O)c1ccccc1
Euclidean distance: 1.39
--
compound: COc1cc2nccc(Oc3ccc(NC(=O)NC4CC4)c(Cl)c3)c2cc1C(N)=O [Lenvatinib (E7080)]
Euclidean distance: 2.11
--
compound: Cc1ncc([N+](=O)[O-])n1CCOC(=O)c1ccccc1 [Metronidazole Benzoate]
Euclidean distance: 0.984
--
compound: CCCCCCCCCCCC1=C(O)C(=O)C=C(O)C1=O
Euclidean distance: 1.85
--
compound: CC(=O)N1C[C@H](O)C[C@H]1C(=O)O
Euclidean distance: 0.691
--
compound: CN(CCOc1ccc(NS(C)(=O)=O)cc1)CCc1ccc(NS(C)(=O)=O)cc1 [Dofetilide]
Euclidean distance: 0.968
--
compound: CCOC(=O)N[C@@H]1CC[C@@H]2[C@@H](C1)C[C@H]1C(=O)O[C@H](C)[C@H]1[C@H]2/C=C/c1ccc(-c2cccc(F)c2)cn1
Euclidean distance: 1.81
--
compound: C[C@H](NC(=O)CCc1nc2ccccc2c(=O)[nH]1)c1ccccc1
Euclidean distance: 1.42
--
compound: COc1cc2ccc(=O)oc2cc1O
Euclidean distance: 1.25
--
compound: CCCC(=O)O[C@]1(C(=O)COC(C)=O)CC[C@H]2[C@@H]3C[C@H](F)C4=CC(=O)C=C[C@]4(C)[C@@]3(F)[C@@H](O)C[C@@]21C [Difluprednate]
Euclidean distance: 1.73
--
compound: C1CCN2C[C@@H]3C[C@@H](CN4CCCC[C@@H]34)[C@H]2C1 [(-)-Sparteine Sulfate]
Euclidean distance: 0.93
--
compound: O=C(/C=C/c1ccc(O)c(O)c1)OCCc1ccccc1
Euclidean distance: 1.43
--
compound: c1coc(CNc2ncnc3[nH]cnc23)c1
Euclidean distance: 1.36
